Target System: Tyrosine-protein phosphatase non-receptor type 7 (Homo sapiens)
Test Description: inhibition of HePTP dephosphorylation activity – biochemical, DiFMUP fluorescence, recombinant human enzyme (AID 401)
Conditions: recombinant PTPN7, DiFMUP fluorescence; at 50 µM; enzyme 55 ng/mL; 25 °C; DTT 5 mM; active compounds read high
Below, each entry is listed with its recorded inhibition.

Check out these entries, answers already filled in.
O=C1NC(=S)NC(=O)C1=C/C=C/c1ccco1 = 97%
COc1ccc(-c2nc3cc(N=Cc4cc(C(=O)O)ccc4O)ccc3o2)cc1 = 80%
O=C(O)c1ccc(O)c(N2C(=O)Nc3ccccc3N2O)c1 = 41%

inhibition reading for "COc1cccc(-c2nc3cc(N=Cc4cc(C(=O)O)ccc4O)ccc3o2)c1" : 56%

inhibition reading for "CCn1nc(/C=C/c2ccccc2)[n+](=O)c2c(=O)n(C)c(=O)[nH]c21" : 32%

Summary for this compound, "O=C(COc1ccc([N+](=O)[O-])cc1)Nc1ccc(O)cc1C(=O)O" : inhibition is 13%
